Where these numbers come from: patent US12723023B2

# test_details: Mouse plasma stability
# Format: in vitro ADME, CD-1 mouse
# condition_label: Table 2, 37° C., 1 μM lipid
# Experimental: Lipid stock solution was prepared by dissolution of the lipid in isopropanol at the concentration of 5 mg/mL. […] After filtration through a 0.45 micron 96-well filtering plate, the filtrates were analyzed by LC-MS (Thermo Fisher's Vanquish UHPLC-LTQ XL linear ion trap Mass Spectrometer); Waters XBridge BEH Shield RP18 2.5 micron (2.1×100 mm) column with its matching guard column. […] T1/2 values were calculated using the first-order decay model.
property: Plasma half life % remaining after 2 h (%)
Please reply with the bare figure in % and do not write the unit itself.

[Q] Bench note: what Plasma half life % remaining after 2 h did CCCCCCCC(=O)OCC(COC(=O)CCCCCCC)OC(=O)CCCC(CCCC(=O)OC(COC(=O)CCCCCCC)COC(=O)CCCCCCC)SC(=O)CCCN(C)C show?
[A] 13

[Q] Same again, this time with CCCCCCCCC(=O)OCC(COC(=O)CCCCCCCC)COC(=O)CCCN(CCCC(=O)OCC(COC(=O)CCCCCCCC)COC(=O)CCCCCCCC)C(=O)SCCCN(C)C
[A] 100

[Q] Same again, this time with CCCCCCCCC(=O)OCC(COC(=O)CCCCCCCC)OC(=O)CCCN(CCCC(=O)OC(COC(=O)CCCCCCCC)COC(=O)CCCCCCCC)C(=O)SCCCN(C)C
[A] 14

[Q] Same again, this time with CCCCCCCCC(=O)OCC(COC(=O)CCCCCCCC)OC(=O)CCCC(CCCC(=O)OC(COC(=O)CCCCCCCC)COC(=O)CCCCCCCC)OC(=O)CCCN(C)C.Cl
[A] 15

[Q] Same again, this time with CCCCCCCCC(=O)OCC(COC(=O)CCCCCCCC)COC(=O)CCN(CCC(=O)OCC(COC(=O)CCCCCCCC)COC(=O)CCCCCCCC)C(=O)SCCN(C)C
[A] 100

---

# test_details: Mouse plasma stability
# Type: in vitro ADME, CD-1 mouse
# condition_label: Table 1, 37° C., 1 μM lipid
property: Plasma half life % remaining after 2 h

[Q] Bench note: what Plasma half life % remaining after 2 h did CCCCCCCCC(=O)OCC(COC(=O)CCCCCCCC)OC(=O)CCCC(CCCC(=O)OC(COC(=O)CCCCCCCC)COC(=O)CCCCCCCC)OC(=O)CCCN(C)C.Cl [LIPID 3] show?
[A] 15%

[Q] Same again, this time with CCCCCCCCC(=O)OCC(COC(=O)CCCCCCCC)OC(=O)CCCN(CCCC(=O)OC(COC(=O)CCCCCCCC)COC(=O)CCCCCCCC)C(=O)SCCCN(C)C [LIPID 1]
[A] 14%

[Q] Same again, this time with CCCCCCC(C)C(=O)OCC(COC(=O)C(C)CCCCCC)OC(=O)CCCN(CCCC(=O)OC(COC(=O)C(C)CCCCCC)COC(=O)C(C)CCCCCC)C(=O)SCCCN(C)C (centres unmarked) [LIPID 18]
[A] 100%

[Q] Same again, this time with CN(C)CCCSC(=O)N(CCCC(=O)OC(COC(=O)CCC1CCCCC1)COC(=O)CCC1CCCCC1)CCCC(=O)OC(COC(=O)CCC1CCCCC1)COC(=O)CCC1CCCCC1 [LIPID 10]
[A] 36%

[Q] Same again, this time with CCCCCCCCC(=O)OCC(COC(=O)CCCCCCCC)OC(=O)CCN(CCC(=O)OC(COC(=O)CCCCCCCC)COC(=O)CCCCCCCC)C(=O)SCCCN(C)C [LIPID 13]
[A] 74%

---

# test_details: In vivo biodegradability assay (lipid concentration in mouse liver by LC-MS)
# Set-up: species or system mice
# condition_label: Table 1, 0.03 mpk, BLOQ: below level of quantification
property: In vivo degradability (ng/tissue) at 48 h 0.03 mpk

CCC1CCC(C(=O)OCC(COC(=O)C2CCC(CC)CC2)OC(=O)CCCN(CCCC(=O)OC(COC(=O)C2CCC(CC)CC2)COC(=O)C2CCC(CC)CC2)C(=O)SCCCN(C)C)CC1 (stereo not shown) [LIPID 16]; <340 ng/tissue
CCCCCCCCC(=O)OCC(COC(=O)CCCCCCCC)OC(=O)CCN(CCC(=O)OC(COC(=O)CCCCCCCC)COC(=O)CCCCCCCC)C(=O)SCCCN(C)C [LIPID 13]; <340 ng/tissue
CCCCCCCCC(=O)OCC(COC(=O)CCCCCCCC)OC(=O)CCC(CCC(=O)OC(COC(=O)CCCCCCCC)COC(=O)CCCCCCCC)OC(=O)CCCN(C)C [LIPID 5]; BLOQ
CC1CCC(CC(=O)OCC(COC(=O)CC2CCC(C)CC2)OC(=O)CCCN(CCCC(=O)OC(COC(=O)CC2CCC(C)CC2)COC(=O)CC2CCC(C)CC2)C(=O)SCCCN(C)C)CC1 (stereo not shown) [LIPID 15]; <340 ng/tissue

---

# test_details: In vivo biodegradability assay (lipid concentration in mouse liver by LC-MS)
# Set-up: species or system mice
# condition_label: Table 1, 0.1 mpk, BLOQ: below level of quantification
property: In vivo degradability (ng tissue) at 48 h 0.1 mpk

CCCCCCCCC(=O)OCC(COC(=O)CCCCCCCC)OC(=O)CCC(CCC(=O)OC(COC(=O)CCCCCCCC)COC(=O)CCCCCCCC)OC(=O)CCCN(C)C [LIPID 5]; BLOQ
CN(C)CCCSC(=O)N(CCCCCC(=O)OC(COC(=O)CCC1CCCCC1)COC(=O)CCC1CCCCC1)CCCCCC(=O)OC(COC(=O)CCC1CCCCC1)COC(=O)CCC1CCCCC1 [LIPID 12]; BLOQ
CCCCCCCCC(=O)OCC(COC(=O)CCCCCCCC)OC(=O)CCN(CCC(=O)OC(COC(=O)CCCCCCCC)COC(=O)CCCCCCCC)C(=O)SCCCN(C)C [LIPID 13]; <340 ng tissue

---

# test_details: Mouse plasma stability
# Format: in vitro ADME, CD-1 mouse
# condition_label: Table 1, 37° C., 1 μM lipid
I'd be grateful if you could share measured Plasma half life % remaining after 2 h for these entries.
Please reply with the bare figure in % and do not write the unit itself.

[Q] Bench note: what Plasma half life % remaining after 2 h did CCC1CCC(C(=O)OCC(COC(=O)C2CCC(CC)CC2)OC(=O)CCCN(CCCC(=O)OC(COC(=O)C2CCC(CC)CC2)COC(=O)C2CCC(CC)CC2)C(=O)SCCCN(C)C)CC1 (centres unmarked) show?
[A] 40

[Q] Same again, this time with CN(C)CCCSC(=O)N(CCCCCC(=O)OC(COC(=O)CCC1CCCCC1)COC(=O)CCC1CCCCC1)CCCCCC(=O)OC(COC(=O)CCC1CCCCC1)COC(=O)CCC1CCCCC1
[A] 57

[Q] Same again, this time with CCCCCCCCC(=O)OCC(COC(=O)CCCCCCCC)OC(=O)CN(CC(=O)OC(COC(=O)CCCCCCCC)COC(=O)CCCCCCCC)C(=O)SCCCN(C)C
[A] 81

[Q] Same again, this time with CCCCCCCC(=O)OCC(COC(=O)CCCCCCC)OC(=O)CCCC(CCCC(=O)OC(COC(=O)CCCCCCC)COC(=O)CCCCCCC)SC(=O)CCCN(C)C
[A] 13

[Q] Same again, this time with CCCCCCCCC(=O)OCC(COC(=O)CCCCCCCC)COC(=O)CCN(CCC(=O)OCC(COC(=O)CCCCCCCC)COC(=O)CCCCCCCC)C(=O)SCCCN(C)C
[A] 116

---

# test_details: In vivo biodegradability assay (lipid concentration in mouse liver by LC-MS)
# Set-up: species or system mice
# condition_label: Table 1, 0.03 mpk, BLOQ: below level of quantification
property: In vivo degradability (ng/tissue) at 48 h 0.03 mpk

Solved entries:
CCCCCCCCC(=O)OCC(COC(=O)CCCCCCCC)OC(=O)CN(CC(=O)OC(COC(=O)CCCCCCCC)COC(=O)CCCCCCCC)C(=O)SCCCN(C)C; BLOQ
CCCCCC(C)(C)C(=O)OCC(COC(=O)C(C)(C)CCCCC)OC(=O)CCCN(CCCC(=O)OC(COC(=O)C(C)(C)CCCCC)COC(=O)C(C)(C)CCCCC)C(=O)SCCCN(C)C; <340 ng/tissue
CCCCCCCC(=O)OCC(COC(=O)CCCCCCC)OC(=O)CCCC(CCCC(=O)OC(COC(=O)CCCCCCC)COC(=O)CCCCCCC)SC(=O)CCCN(C)C; BLOQ
CN(C)CCCSC(=O)N(CCCCCC(=O)OC(COC(=O)CCC1CCCCC1)COC(=O)CCC1CCCCC1)CCCCCC(=O)OC(COC(=O)CCC1CCCCC1)COC(=O)CCC1CCCCC1; BLOQ

Now take the following compound into account.
[Q] Bench note: what In vivo degradability (ng/tissue) at 48 h 0.03 mpk did CN(C)CCCSC(=O)N(CCCC(=O)OC(COC(=O)CCCC1CCCCC1)COC(=O)CCCC1CCCCC1)CCCC(=O)OC(COC(=O)CCCC1CCCCC1)COC(=O)CCCC1CCCCC1 show?
[A] BLOQ
